System: LOC_OS02G45750-cb003
Assay: thermal shift delta Tm vs DMSO control; higher = stronger stabilization (binding);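 note: purified Escherichia coli-expressed rice kinase domain construct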
Conditions: 12.5 µM; protein concentration 2 µM
Categories are assigned from the measured thermal shift delta Tm using these intervals: I = under 0.5 °C, II = from 0.5 °C up to 2 °C, III = 2 °C and over

Solved entries:
O=C1CCc2c(Oc3ccc4c(c3)[C@@H]3[C@H](O4)[C@H]3c3nc4cc(C(F)(F)F)ccc4[nH]3)ccnc2N1 [Lifirafenib (BGB-283)]: III
Cc1cccc(CC(=O)N2CCc3c2ccc(-c2cn(C)c4ncnc(N)c24)c3F)n1: II
CO[C@H]1C[C@@H]2CC[C@@H](C)[C@@](O)(O2)C(=O)C(=O)N2CCCC[C@H]2C(=O)O[C@H]([C@H](C)C[C@@H]2CC[C@H](n3cnnn3)[C@H](OC)C2)CC(=O)[C@H](C)/C=C(\C)[C@@H](O)[C@@H](OC)C(=O)[C@H](C)C[C@H](C)/C=C/C=C/C=C/1C [Zotarolimus(ABT-578)]: II
O=C(O)[C@]1(Cc2cccc(Nc3nccs3)n2)CC[C@@H](Oc2cccc(Cl)c2F)CC1: II
CN(C)C[C@@H]1CCn2cc(c3ccccc32)C2=C(C(=O)NC2=O)c2cn(c3ccccc23)CCO1: I

Which thermal shift delta Tm category applies to `O=C(NOCC1CC1)c1ccc(F)c(F)c1Nc1ccc(I)cc1Cl` here? I

Can you handle `O=C1NC(=O)C(c2ccccc2[N+](=O)[O-])=C1Nc1ccc(O)c(Cl)c1` next? II

Can you handle `COc1ccc(-c2cc3nccn3c(Nc3ncccc3C(N)=O)n2)cc1OC` next? II

Can you handle Cc1ccc(C(=O)Nc2ccc(CN3CCN(C)CC3)c(C(F)(F)F)c2)cc1C#Cc1cnc2[nH]ncc2c1 [GZD824 Dimesylate] next? III

Can you handle `CN(c1ccccc1CNc1nc(Nc2ccc3c(c2)CC(=O)N3)ncc1C(F)(F)F)S(C)(=O)=O` next? III

Can you handle Cc1cc(C(C)Nc2ccccc2)c2nc(N3CCOCC3)cc(=O)n2c1 (stereo not given) next? I

Can you handle CC(C)[C@H](CO)Nc1nc(Nc2cccc(Cl)c2)c2ncn(C(C)C)c2n1 [Purvalanol A] next? III

Can you handle `CCOc1cn(-c2ccc(F)cc2C)nc1C(=O)Nc1ccc(Oc2ccnc3cc(OC)c(OC)cc23)c(F)c1` next? II

Can you handle `C=CC(=O)N1CCC[C@@H](n2nc(-c3ccc(Oc4ccccc4)cc3)c3c(N)ncnc32)C1` next? II

Can you handle `CO[C@@H](C)Cn1c(=O)n(C)c2cnc3ccc(-c4cncc(C(C)(C)O)c4)cc3c21` next? II

Can you handle `Cc1ccc2nc(NCCN)c3ncc(C)n3c2c1` next? II

Can you handle C1=N/C2=N/c3ccc(OCCN4CCCC4)c(c3)COC/C=C/COCc3cccc(c3)C(=C1)N2 [Pacritinib (SB1518)] next? III

Can you handle `O=S(=O)(c1cccc2c(I)cccc12)N1CCCNCC1` next? II

Can you handle CS(=O)(=O)N1CCN(Cc2cc3nc(-c4cccc5[nH]ncc45)nc(N4CCOCC4)c3s2)CC1 [Pictilisib (GDC-0941)] next? II

Can you handle `C[C@@H]1CN(CC(=O)Nc2ccc3c(c2)Cc2cccc(-c4cc(=O)cc(N5CCOCC5)o4)c2S3)C[C@H](C)O1` next? I

Can you handle Cn1cnc2c(F)c(Nc3ccc(Br)cc3Cl)c(C(=O)NOCCO)cc21 [Selumetinib (AZD6244)] next? I

Can you handle `Nc1nc(N)c(N=O)c(OCC2CCCCC2)n1` next? II

Can you handle `CC(C)(C)S(=O)(=O)c1ccc2nccc(Nc3n[nH]c4ccc(F)cc34)c2c1` next? II

Can you handle `Nc1nccc(Oc2ccc3c(C(=O)Nc4cccc(C(F)(F)F)c4)cccc3c2)n1` next? I

Can you handle `Cn1cnc2c(F)c(Nc3ccc(Br)cc3F)c(C(=O)NOCCO)cc21` next? II

###

Tested on: LOC_OS01G57100-cb003
Assay: thermal shift delta Tm vs DMSO control; higher = stronger stabilization (binding)
Conditions: 12.5 µM; protein concentration 2 µM
Recorded metric: thermal shift delta Tm (°C)
# output: bare number, implied unit °C

Answered examples (4):
Nc1ccc(C(=O)Nc2cccc(-c3nc(N4CCOCC4)c4oc5ncccc5c4n3)c2)cn1: 1.26
C[C@@H](N)[C@H]1CC[C@H](C(=O)Nc2ccncc2)CC1: 0.49
Cc1c(C(=O)N2CCOc3ccc(-c4ccc(N)nc4)cc3C2)ccc(S(C)(=O)=O)c1F: -0.07
Cc1ccc(-n2nc(C(C)(C)C)cc2NC(=O)Nc2ccc(OCCN3CCOCC3)c3ccccc23)cc1: 1.19

Value wanted: thermal shift delta Tm (LOC_OS01G57100-cb003) of entry `Cc1ccc(Nc2nccc(N(C)c3ccc4c(C)n(C)nc4c3)n2)cc1S(N)(=O)=O` 0.87

Can you handle `N#Cc1c(NC(=O)c2cccc3ccccc23)sc2c1CCCC2` next? 1.35

Can you handle `Cc1cnc(Nc2ccc(OCCN3CCCC3)cc2)nc1Nc1cccc(S(=O)(=O)NC(C)(C)C)c1` next? 2.1

Can you handle `C[C@@H](N)c1ccc(C(=O)Nc2ccnc3[nH]ccc23)cc1` next? 0.44

Can you handle `CC1(C)C=Cc2c(ccc3c2OC[C@@H](c2ccc(O)cc2O)C3)O1` next? 0.87

###

Test system: LOC_OS01G57100-cb003
Assay: thermal shift delta Tm vs DMSO control; higher = stronger stabilization (binding)
Details: 12.5 µM; protein concentration 2 µM
Recorded metric: thermal shift delta Tm (°C)
# output: bare number, implied unit °C

CC(C)(C)NS(=O)(=O)c1cncc(-c2cc(F)c3nc(N)nn3c2)c1: 1.55

So what does the record say about thermal shift delta Tm for `CC1(C)OCCn2c1nc1c(N3CCOCC3)nc(-c3cnc(N)nc3)nc12` ? -0.05

Can you handle `CCn1c(=O)c(-c2cc[nH]n2)cc2c(C)nc(N)nc21` next? -0.09

Can you handle COc1cc(Nc2c(C#N)cnc3cc(OCCCN4CCN(C)CC4)c(OC)cc23)c(Cl)cc1Cl [Bosutinib (SKI-606)] next? 0.91

Can you handle `Cn1ncc(Cl)c1-c1cc(C(=O)N[C@H](CN)Cc2cccc(F)c2)sc1Cl` next? 0.79

Can you handle `CO[C@H]1C[C@@H]2CC[C@@H](C)[C@@](O)(O2)C(=O)C(=O)N2CCCC[C@H]2C(=O)O[C@H]([C@H](C)C[C@@H]2CC[C@@H](OC(=O)C(C)(CO)CO)[C@H](OC)C2)CC(=O)[C@H](C)/C=C(\C)[C@@H](O)[C@@H](OC)C(=O)[C@H](C)C[C@H](C)/C=C/C=C/C=C/1C` next? 1.06

Can you handle `NC(=O)c1ccc2nc(-c3ccc(Oc4ccc(Cl)cc4)cc3)[nH]c2c1` next? -0.91

###

Recorded thermal shift delta Tm by entry
Test system: LOC_OS02G07810-cb001
Test: thermal shift delta Tm vs DMSO control; higher = stronger stabilization (binding)
Conditions: 12.5 µM; protein concentration 2 µM
# output: bare number, implied unit °C

Answered examples (4):
OC1CCC(Nc2ncc3nc(Nc4c(F)cc(F)cc4F)n([C@H]4CCOC4)c3n2)CC1 (stereo not given in full): -0.22
COc1ccc(F)c(F)c1C(=O)c1cnc(NC2CCN(S(C)(=O)=O)CC2)nc1N: 0.5
CCNC(=O)C#Cc1ccc2c(C(=Nc3ccc(CN(C)C)cc3)c3ccccc3)c(O)[nH]c2c1: 0.15
CC(C)CC(=O)Nc1n[nH]c2c1CN(C(=O)C1CCN(C)CC1)C2(C)C: 1.09

Alright, here's another molecule for you.
So what does the record say about thermal shift delta Tm for `O=C1NC(=O)/C(=C/c2ccc3nccc(-c4ccncc4)c3c2)S1` ? 0.58

###

Recorded thermal shift delta Tm by entry
Tested on: LOC_OS02G08530-cb003
Assay: thermal shift delta Tm vs DMSO control; higher = stronger stabilization (binding)
Settings: 12.5 µM; protein concentration 2 µM
# output: bare number, implied unit °C

Answered examples (6):
COc1cc(N2CCN(C)CC2)ccc1Nc1nccc(-c2cn(C)c3cnccc23)n1: 3.48
Cc1cc2c(F)c(Oc3ncnn4cc(OC[C@@H](C)O)c(C)c34)ccc2[nH]1: 1.17
CO[C@H]1C[C@@H]2CC[C@@H](C)[C@@](O)(O2)C(=O)C(=O)N2CCCC[C@H]2C(=O)O[C@H]([C@H](C)C[C@@H]2CC[C@@H](OCCO)[C@H](OC)C2)CC(=O)[C@H](C)/C=C(\C)[C@@H](O)[C@@H](OC)C(=O)[C@H](C)C[C@H](C)/C=C/C=C/C=C/1C [Everolimus (RAD001)]: 0.55
CN(C)Cc1cccc(N=C(c2ccccc2)c2c(O)[nH]c3cc(C(=O)N(C)C)ccc23)c1: 0.71
CN(C[C@@H]1COCCO1)S(=O)(=O)Nc1ccc2ccc3ncc(-c4cnn(C)c4)cc3c(=O)c2c1: 1.58
CC1(COc2ccc3c(c2)ncn3-c2ccc3cccc(N4CCC(N)CC4)c3n2)COC1: 3.47

Alright, here's another compound for you.
So what does the record say about thermal shift delta Tm for `Cn1c2ccccc2c2c3c(c4c5ccccc5n(CCC#N)c4c21)CNC3=O` ? 5.99

The reported numbers originate from the supplement of paper PMC9694430.
